tested on: MV-4-11 (human biphenotypic leukaemia); assay: In vitro cytotoxicity, MTT assay, MV-4-11; assay type: cell-based

Compound	SI MV4-11
CC[C@@H](C(=O)[C@@H](C)[C@@H](O)[C@H](C)[C@@H]1O[C@@H]([C@@H](CC)C(=O)O)CC[C@@H]1C)[C@H]1O[C@]2(C=C[C@@H](NC(=O)OC3CCOCC3)[C@]3(CC[C@@](C)([C@H]4CC[C@](O)(CC)[C@H](C)O4)O3)O2)[C@H](C)C[C@@H]1C [FLC-00580-1•Na]	32.5

###

test system: SNU-16 (human gastric cancer); experiment: cells; assay type: cell-based; details: Table 4; SNU-16 human gastric cancer cells; read-out: IC50 (nM) SNU-16
Friendly reminder: IC50 below 100 nM is met, at or above is not met.

Compound	Answer label
CC[C@@H](C(=O)[C@@H](C)[C@@H](O)[C@H](C)[C@@H]1O[C@@H]([C@@H](CC)C(=O)O)CC[C@@H]1C)[C@H]1O[C@]2(C=C[C@@H](NC(=O)C3CCCC3)[C@]3(CC[C@@](C)([C@H]4CC[C@](O)(CC)[C@H](C)O4)O3)O2)[C@H](C)C[C@@H]1C [FLC-00455-1•Na]	not met
CC[C@@H](C(=O)[C@@H](C)[C@@H](O)[C@H](C)[C@@H]1O[C@@H]([C@@H](CC)C(=O)O)CC[C@@H]1C)[C@H]1O[C@]2(C=C[C@@H](NC(=O)OCCOc3ccccc3)[C@]3(CC[C@@](C)([C@H]4CC[C@](O)(CC)[C@H](C)O4)O3)O2)[C@H](C)C[C@@H]1C [FLC-00460-1•Na]	not met
CC[C@@H](C(=O)[C@@H](C)[C@@H](O)[C@H](C)[C@@H]1O[C@@H]([C@@H](CC)C(=O)O)CC[C@@H]1C)[C@H]1O[C@]2(C=C[C@@H](NC(=O)OCC(F)F)[C@]3(CC[C@@](C)([C@H]4CC[C@](O)(CC)[C@H](C)O4)O3)O2)[C@H](C)C[C@@H]1C [FLC-00446-1•Na]	not met
CC[C@@H](C(=O)[C@@H](C)[C@@H](O)[C@H](C)[C@@H]1O[C@@H]([C@@H](CC)C(=O)O)CC[C@@H]1C)[C@H]1O[C@]2(C=C[C@@H](NC(=O)Nc3cccc(C(F)(F)F)c3)[C@]3(CC[C@@](C)([C@H]4CC[C@](O)(CC)[C@H](C)O4)O3)O2)[C@H](C)C[C@@H]1C [FLC-00385-1]	met
CC[C@@H](C(=O)[C@@H](C)[C@@H](O)[C@H](C)[C@@H]1O[C@@H]([C@@H](CC)C(=O)O)CC[C@@H]1C)[C@H]1O[C@]2(C=C[C@@H](NC(=S)Nc3cccc(C(F)(F)F)c3)[C@]3(CC[C@@](C)([C@H]4CC[C@](O)(CC)[C@H](C)O4)O3)O2)[C@H](C)C[C@@H]1C [FLC-00386-1]	met
CC[C@@H](C(=O)[C@@H](C)[C@@H](O)[C@H](C)[C@@H]1O[C@@H]([C@@H](CC)C(=O)O)CC[C@@H]1C)[C@H]1O[C@]2(C=C[C@@H](NC(=O)C(=O)NC3CC3)[C@]3(CC[C@@](C)([C@H]4CC[C@](O)(CC)[C@H](C)O4)O3)O2)[C@H](C)C[C@@H]1C [FLC-00441-1•Na]	not met

###

system: KG-1 (human acute myeloid leukaemia); test: In vitro cytotoxicity, MTT assay, KG-1; format: cell-based; conditions: Homo sapiens; 72 h with compound, MTT; n/a = non-active compound

Compound structure	System name	IC50 [nM]
CCNC(=O)N[C@@H]1C=C[C@]2(O[C@H]([C@@H](CC)C(=O)[C@@H](C)[C@@H](O)[C@H](C)[C@@H]3O[C@@H]([C@@H](CC)C(=O)O)CC[C@@H]3C)[C@@H](C)C[C@H]2C)O[C@@]12CC[C@@](C)([C@H]1CC[C@](O)(CC)[C@H](C)O1)O2	KG-1 (human acute myeloid leukaemia)	67.7
CC[C@@H](C(=O)[C@@H](C)[C@@H](O)[C@H](C)[C@@H]1O[C@@H]([C@@H](CC)C(=O)O)CC[C@@H]1C)[C@H]1O[C@]2(C=C[C@@H](NC(=S)Nc3ccc(F)cc3)[C@]3(CC[C@@](C)([C@H]4CC[C@](O)(CC)[C@H](C)O4)O3)O2)[C@H](C)C[C@@H]1C	KG-1 (human acute myeloid leukaemia)	24.4

###

test system: MIA PaCa-2 (human pancreatic cancer); experiment: cells; type: cell-based; details: Table 4; selectivity coefficient vs normal BALB/3T3 fibroblasts
Examples of compounds with documented SI MIA PaCa-2 follow.

Compound structure	SI MIA PaCa-2
CC[C@@H](C(=O)[C@@H](C)[C@@H](O)[C@H](C)[C@@H]1O[C@@H]([C@@H](CC)C(=O)O)CC[C@@H]1C)[C@H]1O[C@]2(C=C[C@@H](NC(=O)OCCOc3ccccc3)[C@]3(CC[C@@](C)([C@H]4CC[C@](O)(CC)[C@H](C)O4)O3)O2)[C@H](C)C[C@@H]1C	6.8
CC[C@@H](C(=O)[C@@H](C)[C@@H](O)[C@H](C)[C@@H]1O[C@@H]([C@@H](CC)C(=O)O)CC[C@@H]1C)[C@H]1O[C@]2(C=C[C@@H](NC(=O)OCCCCCCCl)[C@]3(CC[C@@](C)([C@H]4CC[C@](O)(CC)[C@H](C)O4)O3)O2)[C@H](C)C[C@@H]1C	6.9
CC[C@@H](C(=O)[C@@H](C)[C@@H](O)[C@H](C)[C@@H]1O[C@@H]([C@@H](CC)C(=O)O)CC[C@@H]1C)[C@H]1O[C@]2(C=C[C@@H](NC(=O)C(=O)NC3CC3)[C@]3(CC[C@@](C)([C@H]4CC[C@](O)(CC)[C@H](C)O4)O3)O2)[C@H](C)C[C@@H]1C	3.0
CC[C@@H](C(=O)[C@@H](C)[C@@H](O)[C@H](C)[C@@H]1O[C@@H]([C@@H](CC)C(=O)O)CC[C@@H]1C)[C@H]1O[C@]2(C=C[C@@H](NC(=O)C(=O)NC)[C@]3(CC[C@@](C)([C@H]4CC[C@](O)(CC)[C@H](C)O4)O3)O2)[C@H](C)C[C@@H]1C	7.4
CC[C@@H](C(=O)[C@@H](C)[C@@H](O)[C@H](C)[C@@H]1O[C@@H]([C@@H](CC)C(=O)O)CC[C@@H]1C)[C@H]1O[C@]2(C=C[C@@H](NC(=O)OC(CCl)CCl)[C@]3(CC[C@@](C)([C@H]4CC[C@](O)(CC)[C@H](C)O4)O3)O2)[C@H](C)C[C@@H]1C	2.6
CC[C@@H](C(=O)[C@@H](C)[C@@H](O)[C@H](C)[C@@H]1O[C@@H]([C@@H](CC)C(=O)O)CC[C@@H]1C)[C@H]1O[C@]2(C=C[C@@H](NC(=O)OCC(F)(F)F)[C@]3(CC[C@@](C)([C@H]4CC[C@](O)(CC)[C@H](C)O4)O3)O2)[C@H](C)C[C@@H]1C	2.4
CC[C@@H](C(=O)[C@@H](C)[C@@H](O)[C@H](C)[C@@H]1O[C@@H]([C@@H](CC)C(=O)O)CC[C@@H]1C)[C@H]1O[C@]2(C=C[C@@H](NC(=O)C3CCCC3)[C@]3(CC[C@@](C)([C@H]4CC[C@](O)(CC)[C@H](C)O4)O3)O2)[C@H](C)C[C@@H]1C	9.8

###

test system: Hs294T (human melanoma); experiment: cells; type: cell-based; conditions: selectivity coefficient vs normal BALB/3T3 cells
Assay readout: Hs294T SI

Compound structure	System name	Meas value
CC[C@@H](C(=O)[C@@H](C)[C@@H](O)[C@H](C)[C@@H]1O[C@@H]([C@@H](CC)C(=O)O)CC[C@@H]1C)[C@H]1O[C@]2(C=C[C@@H](NC(=S)NCCCSC)[C@]3(CC[C@@](C)([C@H]4CC[C@](O)(CC)[C@H](C)O4)O3)O2)[C@H](C)C[C@@H]1C	Hs294T (human melanoma)	0.2
CCCCNC(=S)N[C@@H]1C=C[C@]2(O[C@H]([C@@H](CC)C(=O)[C@@H](C)[C@@H](O)[C@H](C)[C@@H]3O[C@@H]([C@@H](CC)C(=O)O)CC[C@@H]3C)[C@@H](C)C[C@H]2C)O[C@@]12CC[C@@](C)([C@H]1CC[C@](O)(CC)[C@H](C)O1)O2	Hs294T (human melanoma)	0.9
CC[C@@H](C(=O)[C@@H](C)[C@@H](O)[C@H](C)[C@@H]1O[C@@H]([C@@H](CC)C(=O)O)CC[C@@H]1C)[C@H]1O[C@]2(C=C[C@@H](NC(=O)Nc3ccc(OC)cc3)[C@]3(CC[C@@](C)([C@H]4CC[C@](O)(CC)[C@H](C)O4)O3)O2)[C@H](C)C[C@@H]1C	Hs294T (human melanoma)	1.4
CC[C@@H](C(=O)[C@@H](C)[C@@H](O)[C@H](C)[C@@H]1O[C@@H]([C@@H](CC)C(=O)O)CC[C@@H]1C)[C@H]1O[C@]2(C=C[C@@H](NC(=S)NCC(C)C)[C@]3(CC[C@@](C)([C@H]4CC[C@](O)(CC)[C@H](C)O4)O3)O2)[C@H](C)C[C@@H]1C	Hs294T (human melanoma)	0.8
